- Tested on: Enterobacter cloacae
- Assay Procedure: Minimum inhibitory concentration (MIC)preventing growth of Enterobacter cloacae
- Format: functional
Observable: MIC (µg/mL)

{"Compound": "CC1COc2c(N3CC(C)(N)C3)c(F)cc3c(=O)c(C(=O)O)cn1c23 (centres undefined)", "MIC / µg/mL": 0.12}

[I] NC1CN(c2cc3c(cc2F)c(=O)c2c(=O)[nH]sc2n3C2CC2)C1
[II] CNC1(C)CN(c2cc3c(cc2F)c(=O)c(C(=O)O)cn3C2CC2)C1
QUERY: Thinking about recorded MIC values, which is higher, I or II ? Answer = label.
RESULT: II
(II: 0.12 µg/mL, I: 0.03 µg/mL)

* * *

- System: Enterobacter cloacae
- Assay Procedure: Minimum inhibitory concentration (MIC)preventing growth of Enterobacter cloacae
- Format: functional
Observable: MIC (µg/mL)

Examples with answers:
{"Smiles Record": "CNC1(C)CN(c2cc3c(cc2F)c(=O)c(C(=O)O)cn3C(C)(C)C)C1", "Measured Target": "Enterobacter cloacae", "Observable": "MIC", "Units Text": "µg/mL", "Recorded Measurement": 0.25}
{"Smiles Record": "CC1(N)CN(c2cc3c(cc2F)c(=O)c2c(=O)[nH]sc2n3C2CC2)C1", "Measured Target": "Enterobacter cloacae", "Observable": "MIC", "Units Text": "µg/mL", "Recorded Measurement": 0.015}

[1] NC(=O)C1CN(c2c(F)cc3c(=O)c(C(=O)O)cn(C4CC4)c3c2F)C1
[2] O=C(O)c1cn(C2CC2)c2c(F)c(N3CC(N4CCCC4)C3)c(F)cc2c1=O
QUERY: // select label with min value of measured MIC from [ 1 , 2 ] Answer = label.
RESULT: 2
(2: 0.06 µg/mL, 1: 0.25 µg/mL)

[I] CNC1CN(c2nc3c(cc2F)c(=O)c(C(=O)O)cn3C2CC2)C1
[II] CN(C)C1CN(c2nc3c(cc2F)c(=O)c(C(=O)O)cn3C2CC2)C1
QUERY: // select label with min value of measured MIC from [ I , II ] Answer = label.
RESULT: I
(I: 0.03 µg/mL, II: 0.12 µg/mL)

* * *

- System: Escherichia coli
- Assay Procedure: Minimum inhibitory concentration (MIC)preventing growth of Escherichia coli
- Format: functional
Observable: MIC (µg/mL)

Examples with answers:
{"Smiles Record": "NC1CN(c2c(F)cc3c(=O)c(C(=O)O)cn(C4CC4)c3c2Cl)C1", "Recorded Measurement": 0.015}
{"Smiles Record": "CCn1cc(C(=O)O)c(=O)c2cc(F)c(N3CC(C)(N)C3)cc21", "Recorded Measurement": 0.5}
{"Smiles Record": "CCn1cc(C(=O)O)c(=O)c2cc(F)c(N3CC(C)(N)C3)nc21", "Recorded Measurement": 0.25}
{"Smiles Record": "O=C(O)c1cn(C2CC2)c2c(F)c(N3CC(O)C3)c(F)cc2c1=O", "Recorded Measurement": 0.06}

[a] CCn1cc(C(=O)O)c(=O)c2cc(F)c(N3CC(C)(N)C3)c(F)c21
[b] NCC1CN(c2c(F)cc3c(=O)c(C(=O)O)cn(C4CC4)c3c2F)C1
QUERY: // select label with min value of measured MIC from [ a , b ] Answer = label.
RESULT: a
